Value source: ChEMBL document CHEMBL1133123

- TESTED_SYSTEM: Alpha-2A adrenergic receptor (Homo sapiens, UniProt P08913)
- Sequence (P08913 whole entry): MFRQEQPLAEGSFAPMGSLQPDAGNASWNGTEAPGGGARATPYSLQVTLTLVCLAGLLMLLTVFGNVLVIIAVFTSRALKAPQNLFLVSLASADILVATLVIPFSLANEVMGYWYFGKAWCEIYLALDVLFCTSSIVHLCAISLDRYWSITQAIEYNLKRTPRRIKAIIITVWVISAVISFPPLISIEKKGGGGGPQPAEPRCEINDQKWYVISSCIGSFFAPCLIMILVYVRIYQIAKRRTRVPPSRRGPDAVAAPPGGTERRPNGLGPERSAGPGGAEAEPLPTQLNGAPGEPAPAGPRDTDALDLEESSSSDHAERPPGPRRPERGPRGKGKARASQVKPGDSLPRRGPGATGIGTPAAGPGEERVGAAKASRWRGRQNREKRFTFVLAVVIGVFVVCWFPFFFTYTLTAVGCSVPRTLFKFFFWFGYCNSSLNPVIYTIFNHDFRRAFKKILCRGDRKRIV
Could you mark each record criterion met if its Ki falls strictly under 200 nM, and criterion not met if it equals or exceeds it?

C1=C(c2c[nH]cn2)c2ccsc2CC1 ... criterion not met
Cc1sc(C)c2c1CCCC2c1c[nH]cn1 (stereo unspecified) ... criterion met
c1nc(C2CCCc3sccc32)c[nH]1 (stereo unspecified) ... criterion met
Cc1sc(C)c2c1CCC=C2c1cnc[nH]1 ... criterion met

Is Ki strictly under 200 nM for the entry c1cc(-c2c[nH]cn2)c2ccsc2c1 ?
criterion not met

Request: C1=C(c2cnc[nH]2)c2sccc2CC1
criterion not met

====

- TESTED_SYSTEM: Alpha-2B adrenergic receptor (Homo sapiens)
- EXPERIMENTAL_PROTOCOL: Tested for Binding affinity towards alpha-2B adrenergic receptor
PROPERTY: Ki (µM)
Could you give me the number in µM? Just the number is fine.

Quick check: Ki on Alpha-2B adrenergic receptor (Homo sapiens), item C1=C(c2cnc[nH]2)c2sccc2CC1 ?
0.94

====

- Organism: Rattus norvegicus
- EXPERIMENTAL_PROTOCOL: Selectivity ratio of alpha1/alpha2d
PROPERTY: Ratio

See these solved cases before continuing.
Cc1sc(C)c2c1CCCC2c1c[nH]cn1 (stereo not drawn) ... 17
c1nc(C2CCCc3sccc32)c[nH]1 (stereo not drawn) ... 196
c1cc(-c2c[nH]cn2)c2ccsc2c1 ... 132
Cc1cccc([C@H](C)c2c[nH]cn2)c1C ... 333
C1=C(c2c[nH]cn2)c2sccc2CC1 ... 133

Given the compound Cc1sc(C)c2c1CCC=C2c1c[nH]cn1 , what is its reported Ratio?
11600

Same read-out for c1nc(C2CCCc3ccsc32)c[nH]1 (stereo not drawn) ?
260

Another: C1=C(c2c[nH]cn2)c2ccsc2CC1
295

====

- TESTED_SYSTEM: Alpha-2B adrenergic receptor (Homo sapiens, UniProt P18089)
- Sequence (P18089 whole entry): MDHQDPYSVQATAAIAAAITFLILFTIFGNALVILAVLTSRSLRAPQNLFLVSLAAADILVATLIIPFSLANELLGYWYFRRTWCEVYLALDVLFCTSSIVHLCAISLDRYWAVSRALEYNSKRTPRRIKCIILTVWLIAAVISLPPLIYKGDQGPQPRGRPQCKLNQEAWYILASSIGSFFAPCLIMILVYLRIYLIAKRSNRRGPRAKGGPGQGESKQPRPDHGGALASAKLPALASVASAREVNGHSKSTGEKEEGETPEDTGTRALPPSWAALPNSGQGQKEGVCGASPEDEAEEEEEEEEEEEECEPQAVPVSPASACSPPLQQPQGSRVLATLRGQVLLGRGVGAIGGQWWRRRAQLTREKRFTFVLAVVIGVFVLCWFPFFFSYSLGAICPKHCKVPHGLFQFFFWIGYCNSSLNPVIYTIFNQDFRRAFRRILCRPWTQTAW
- EXPERIMENTAL_PROTOCOL: Binding affinity towards Alpha-2B adrenergic receptor
Consider the cut-off 600 nM. If the recorded Ki is strictly smaller, the label is rule met; if not, the label is rule not met.

Solved entries (count: 2):
Cc1sc(C)c2c1CCC=C2c1cnc[nH]1 ... rule met
c1nc(C2CCCc3sccc32)c[nH]1 (stereo not given) ... rule met

Would you kindly verify if Ki of Cc1sc(C)c2c1CCCC2c1c[nH]cn1 (stereo not given) is strictly less than 600 nM?
rule met

Repeat for the following compound: c1cc(-c2c[nH]cn2)c2ccsc2c1
rule not met

And C1=C(c2c[nH]cn2)c2ccsc2CC1 ?
rule not met
